# PROCEDURE SUMMARY: Human hepatocyte intrinsic clearance
# Format: in vitro ADME
# MEASUREMENT PARAMETERS: human, hepatocytes; scaled data; read-out: Human Hepatocytes in vitro scaled Intrinsic Clearance
QUANTITY MEASURED: CLint scaled at 1 μM (mL/min/kg)

INSERT INTO assay_data (structure_string, quantity_measured, result_number) VALUES
  ('CCN(C(C)=O)c1cccc(-c2ccnc3c(C#N)cnn23)c1', 'CLint scaled at 1 μM', 19.2),
  ('OCCn1cc(-c2cnc3nnn(Cc4ccc5ncccc5c4)c3n2)cn1', 'CLint scaled at 1 μM', 10.4);

* * *

Catalogue of microsomal CLint at 1 μM values
# PROCEDURE SUMMARY: Human liver cytosol intrinsic clearance
# Format: in vitro ADME
# MEASUREMENT PARAMETERS: human, cytosol, Human Liver Cytosol Intrinsic Clearance _1
QUANTITY MEASURED: microsomal CLint at 1 μM (µL/min/mg)

INSERT INTO results (molecule, result_number) VALUES
  ('[2H]c1ccc2ncn(Cc3cc(OC)c4c(c3)O[C@@H](C)[C@H](c3ccc(OC)nc3)O4)c2n1 (racemic)', 3.4),
  ('COc1ccc(C2Oc3c(OC)cc(Cn4cnc5cccnc54)cc3O[C@H]2C)cn1 (stereo partly drawn)', 5.1),
  ('[2H]c1nc2cccnc2n1Cc1cc(OC)c2c(c1)O[C@H](C)[C@@H](c1ccc(OC)nc1)O2', 0.7),
  ('[2H]c1ccc2nc([2H])n(Cc3cc(OC)c4c(c3)O[C@@H](C)[C@H](c3ccc(OC)nc3)O4)c2n1 (racemic)', 1.5),
  ('[2H]c1nc2cccnc2n1C([2H])([2H])c1cc(OC)c2c(c1)O[C@@H](C)[C@H](c1ccc(OC)nc1)O2 (racemic)', 1.2),
  ('[2H]c1nc2cccnc2n1Cc1cc(OC)c2c(c1)O[C@@H](C)[C@H](c1ccc(OC)nc1)O2', 1.5);

* * *

# PROCEDURE SUMMARY: Caco-2 permeability assay
# Assay type: in vitro ADME
# MEASUREMENT PARAMETERS: human
# Procedure: Caco-2 permeability and efflux assays were performed in cell-based permeability model using Caco-2/TC7 cells. For permeability assays, Caco-2/TC7 cells were seeded on to Millipore Millicell 96 and for efflux assays, 24-well plates were used. The plates with cells were ready to use between 21-25 days of culturing. […] At the end of the incubation period, samples taken were analyzed using high pressure liquid chromatography with tandem mass spectrometry. […]
Catalogue of recovery at 90 min, 20 μM values
QUANTITY MEASURED: recovery at 90 min, 20 μM (%)

INSERT INTO results (compound, result_number) VALUES
  ('COc1ccc(C2Oc3c(OC)cc(Cn4cnc5cccnc54)cc3O[C@H]2C)cn1 (some centres unmarked) [Compound 24]', 80),
  ('[2H]c1nc2cccnc2n1Cc1cc(OC)c2c(c1)O[C@@H](C)[C@H](c1ccc(OC)nc1)O2 [Compound 6]', 73);

* * *

# System: primary murine microglia
# PROCEDURE SUMMARY: Immunostaining of primary microglia (Iba1+ area, DAPI+ nuclei) after CSF-1 stimulation
# Format: cell-based, mouse
# MEASUREMENT PARAMETERS: primary murine microglia, CSF-1 stimulation; read-out: IC50 for DAPI (DAPI+ cell number)
QUANTITY MEASURED: IC50 (nM)

INSERT INTO measurements (structure_string, result_number) VALUES
  ('FC(F)(F)c1ccc(CNc2ccc(Cc3c[nH]c4ncc(Cl)cc34)cn2)cn1', 68.2);
